- targetSystem: Short transient receptor potential channel 4 (Mus musculus)
- experimentNotes: blockers of DAMGO-evoked TRPC4 calcium flux – cell-based, Fluo4, HEK293 TRPC4beta/mu-opioid, confirmation (AID 2636)
- measurementContext: at 10 µM
Calls of active or inactive are those of the source.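 How the source made its calls: active means calcium signal cut by more than 3 SD below the full-agonist control yet still positive, in both repeats and the earlier primary screen; inactive means the rest.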
Hi! Could you answer with just one of these? active, inactive

Answered examples (5):
# molecule, labelValue
data = [
    ("CCCCC(=O)NC(=S)NNC(=O)c1ccc(Cl)cc1Cl", "inactive"),
    ("CCN(CC)CCN(C(=O)c1ccccc1OC)c1nc2ccc(F)cc2s1", "active"),
    ("CCN1CCN(c2c(Cl)cccc2NC(=O)c2ccc([N+](=O)[O-])cc2)CC1", "inactive"),
    ("Cc1ccc(S(=O)(=O)NC(=O)N2CCN(Cc3c(F)cccc3Cl)CC2)cc1", "inactive"),
    ("COc1ccc(/C=C2\\SC(=S)N(C(Cc3ccccc3)C(=O)O)C2=O)cc1 (centres undefined)", "active"),
]

Could you check what this test reported for `CCn1c2ccccc2c2cc(/C=N/NC(=O)c3cc(O)cc(O)c3)ccc21` ? active

* * *

- Test system: TRPC4 beta (transient receptor potential cation channel C4), mouse
- experimentNotes: potentiation of DAMGO EC20 TRPC4 response – cell-based, Fluo-4, HEK293 TRPC4beta/mu-opioid, confirmation (AID 2555)
- measurementContext: DAMGO EC20, Fluo-4 calcium flux, at 10 µM
Active and inactive are the calls of the source.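 How the source made its calls: active means primary screen hit whose calcium fluorescence ratio, in both repeats, exceeds the weak agonist control mean by 3 SD; inactive means the rest.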
The categories you may choose from are yes (active), no (inactive)

Some solved entries appear below for comparison.
# compound, labelValue
rows = [
    ("c1ccc(Cn2c(NCc3ccco3)nc3ccccc32)cc1", "no"),
    ("NS(=O)(=O)c1ccc(NN=C2CCN(Cc3ccccc3)CC2)c([N+](=O)[O-])c1", "no"),
    ("Cc1c(C(=O)NCC(c2ccco2)N(C)C)oc2c(Cl)cccc12 (stereo unspecified)", "no"),
    ("c1ccc(CN2CCN(Cc3c[nH]c4ccccc34)CC2)cc1", "no"),
]

State the result this test recorded for `CNc1nc(N2CCc3ccccc32)ncc1F` . yes

I'd appreciate the recorded outcome for `O=C(Nc1ccccc1)C1=C[C@H](C2CCCCC2)C[C@H](OCc2ccc(CO)cc2)O1` from this test. yes

* * *

- targetSystem: Short transient receptor potential channel 6 (Mus musculus) (UniProt Q61143)
- Sequence (Q61143 whole entry, looked up): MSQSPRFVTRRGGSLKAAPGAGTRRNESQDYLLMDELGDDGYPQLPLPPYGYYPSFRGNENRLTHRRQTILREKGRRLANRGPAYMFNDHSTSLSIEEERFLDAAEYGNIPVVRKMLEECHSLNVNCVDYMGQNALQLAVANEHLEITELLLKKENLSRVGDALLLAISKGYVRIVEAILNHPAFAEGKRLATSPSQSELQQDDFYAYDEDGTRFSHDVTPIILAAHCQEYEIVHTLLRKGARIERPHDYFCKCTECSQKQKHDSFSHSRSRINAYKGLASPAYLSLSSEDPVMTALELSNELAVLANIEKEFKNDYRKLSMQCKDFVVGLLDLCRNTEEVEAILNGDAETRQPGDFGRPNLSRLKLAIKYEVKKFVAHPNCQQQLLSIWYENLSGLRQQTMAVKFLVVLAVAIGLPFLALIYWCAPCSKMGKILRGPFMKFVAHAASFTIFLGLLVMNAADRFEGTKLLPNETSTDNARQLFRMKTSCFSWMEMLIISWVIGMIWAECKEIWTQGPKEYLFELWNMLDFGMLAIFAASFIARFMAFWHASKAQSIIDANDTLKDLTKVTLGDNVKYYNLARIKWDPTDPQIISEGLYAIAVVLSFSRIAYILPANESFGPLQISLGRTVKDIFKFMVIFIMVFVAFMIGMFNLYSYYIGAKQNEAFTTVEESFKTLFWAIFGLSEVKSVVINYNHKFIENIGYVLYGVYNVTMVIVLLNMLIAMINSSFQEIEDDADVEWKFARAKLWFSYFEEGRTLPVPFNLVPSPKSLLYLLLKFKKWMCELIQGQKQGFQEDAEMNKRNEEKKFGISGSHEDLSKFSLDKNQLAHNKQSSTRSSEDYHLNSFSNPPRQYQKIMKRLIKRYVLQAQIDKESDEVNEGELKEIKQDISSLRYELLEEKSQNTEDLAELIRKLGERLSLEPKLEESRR
- experimentNotes: TRPC6 blockade by TRPC4 inhibitor hits – cell-based, HEK293, membrane potential dye, duplicate, selectivity assay for TRPC4 inhibitor project, confirmation (AID 434948)
- measurementContext: HEK293 TRPC6, membrane potential dye fluorescence, at 10 µM, stimulated with maximal-effect acetylcholine
Activity calls are given as the source filed them.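 How the source made its calls: active means active in primary screen and both duplicates, each dropping signal beyond three positive-control SD with fluorescence still positive; inactive means the rest.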
Tick one outcome: active, inactive

Study these solved cases before continuing.
# compound, labelValue
measured = [
    ("CCN1CCN(c2ccc(S(=O)(=O)N3CCOCC3)cc2NC(=O)c2ccccc2SC)CC1", "inactive"),
    ("COCCn1c(SCC(=O)c2ccccc2)nc2ccccc2c1=O", "inactive"),
]

Could you kindly confirm the outcome this assay logged for `CCOC(=O)Cc1csc(NC(=O)NC2(C(F)(F)F)Oc3cc(Cl)c(Cl)cc3O2)n1` ? inactive

Test call, this compound: Cc1cc2oc(C(=O)N(Cc3cccs3)C3CCS(=O)(=O)C3)cc(=O)c2cc1Cl (stereo unspecified) inactive

Which outcome did this test record for the compound `Cc1ccc(-c2[nH]c3ccccc3c2SCCN)cc1` ? active

# lookup: test call for `COc1ccc(NS(=O)(=O)c2csc(C(N)=O)c2)cc1OC` inactive

* * *

- Test system: transient receptor potential cation channel C4 beta (TRPC4), mouse
- experimentNotes: TRPC4 cation channel opening, second retest – cell-based, second round, Fluo4, HEK293 TRPC4beta/mu-opioid, 1 µM, confirmation (AID 2461)
- measurementContext: Fluo4 calcium fluorescence, at 1 µM
The source made the active and inactive calls.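 How the source made its calls: active means primary screen active and over 50% activation in each of two duplicate runs; inactive means the rest.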
The reply should name one outcome from yes for active, no for inactive

# compound, labelValue
rows = [
    ("COc1ccc(OC)c(NC(=O)COC(=O)Cc2ccc(-c3ccccc3)cc2)c1", "no"),
    ("Cc1cccc(N(Cc2ccccc2)C(=O)CSC(C)C(=O)Nc2cc(C)on2)c1 (stereo not given)", "no"),
    ("CCOC(=O)c1ccc(NC(=O)NCCc2cnc[nH]2)cc1", "yes"),
    ("CCCN(CCC)CCCNC(=O)c1cc2c(=O)n(C)c3ccccc3c2n1C", "no"),
]

# ---- query compound ----
Each compound tested received a call. Report the one for `COc1ccc(F)cc1CN1CCN(C(=O)CCC(=O)Nc2nnc(C(C)C)s2)CC1` . no

* * *

- targetSystem: Short transient receptor potential channel 4 (Mus musculus)
- experimentNotes: potentiation of DAMGO-evoked TRPC4 calcium signal – cell-based, HEK293 TRPC4/mu-opioid, Fluo-4 calcium, EC20 DAMGO, dose response (AID 434941);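 further: calcium entry triggered by an EC20 dose of DAMGO at the co-expressed mu-opioid receptor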
- measurementContext: HEK293 TRPC4/mu-opioid cells, Fluo-4 calcium fluorescence; series mostly up to 20 µM
Results with a measured potency or affinity are listed apart. Active and inactive are the calls of the source.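 Rule for the calls: active = earlier screen potentiator hit that boosts the TRPC4 ion channel at some dose, with a dose response; inactive = no potentiation, no dose response, or not a prior hit.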
quantityMeasured: outcome

Example entries and their recorded answers appear below.
# molecule, outcome
measured = [
    ("CC(C)n1cnc2c(N(C)c3ccccc3)nc(N(CCN(C)C)Cc3ccccc3)nc21", "inactive"),
    ("Cc1ccc(/C=N/NC(=O)CSc2nc3ccccc3n2Cc2ccccc2)o1", "inactive"),
    ("CC(C)Oc1cccc(C(=O)NC(=S)Nc2ccc(N3CCN(C)CC3)cc2)c1", "inactive"),
    ("CC(C)c1nc(CNC(=O)CC2C(=O)NCCN2Cc2ccc(F)cc2Cl)cs1 (configuration not stated)", "inactive"),
    ("C=CCn1c(SCC(=O)c2ccc(NS(=O)(=O)c3ccccc3)cc2)nnc1-c1cccs1", "inactive"),
]

Need outcome of `CCCc1nc2oc3c(NCCCN(C)C)ncnc3c2c2c1CCCC2` , thanks. inactive

Given the molecule CCOc1ccc(S(=O)(=O)Nc2cccc(C(=O)NCC(c3ccccc3)N(C)C)c2)cc1 (configuration not stated) , what is its reported outcome? inactive

Please give the measured outcome for this molecule: `CC(C)Cn1c(O)c(N=NC(=O)c2cccc(S(=O)(=O)N3CCCCC3)c2)c2ccccc21` inactive

Look up outcome: `COCCSc1ccccc1C(=O)N1CCC(Cc2ccccc2)CC1` inactive

Entry under review: `Cc1ccc(-c2c(C(=O)N/N=C/c3ccc(OC(C)C)cc3)nnn2-c2nonc2N)cc1` . Reported outcome? inactive

State the recorded outcome for this entry: Cc1ccccc1N(C(=O)c1snc(C(N)=O)c1N)C(C(=O)NC1CCCC1)c1ccco1 (configuration not stated) inactive

Could you tell me which outcome is on file for `O=C(Nc1ccc(Cl)c(Cl)c1)N(CCCN1CCOCC1)Cc1cccs1` ? inactive

* * *

- targetSystem: Short transient receptor potential channel 6 (Mus musculus) (UniProt Q61143)
- experimentNotes: TRPC6 blockade by TRPC4 inhibitor hits – cell-based, HEK293, membrane potential dye, duplicate, selectivity assay for TRPC4 inhibitor project, confirmation (AID 434948)
- measurementContext: HEK293 TRPC6, membrane potential dye fluorescence, at 10 µM, stimulated with maximal-effect acetylcholine
The source made the active and inactive calls.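 Rule for the calls: active = active in primary screen and both duplicates, each dropping signal beyond three positive-control SD with fluorescence still positive; inactive = the rest.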
Could you please pick one outcome from this set? active, inactive

Before answering, review these 3 worked examples.
# molecule, labelValue
data = [
    ("Cc1ccc(Cn2c(=N)c(C(=O)NCC3CCCO3)cc3c(=O)n4ccccc4nc32)cc1 (stereo unspecified)", "inactive"),
    ("COc1ccc2nc(C)cc(NCc3ccc(F)cc3)c2c1", "active"),
    ("O=C(CN1CCCCCC1)N1c2ccccc2Sc2ccccc21", "active"),
]

Per the records of this test, what outcome belongs to `Cc1oc(-c2ccoc2)nc1CN(Cc1ccccc1)CC1CC1` ? inactive

Recorded test outcome, item `CCOC(=O)C(CCCCCOc1ccc([N+](=O)[O-])cc1)C(=O)OCC` inactive

Could you check what this test reported for `CCCCN(CC)CCNC(=O)c1cc2c(=O)n(C)c3ccccc3c2s1` ? inactive

Field: outcome | Entry: `Cc1cccc2nc(CSc3ccc(Cl)cc3)cn12` inactive

Please state the recorded outcome for this molecule: `CCc1nc2ccccc2n1Cc1ccccc1OC` inactive

Could you please tell me the result logged for `CCOC(=O)CCSc1nc(C)cc(C(F)(F)F)c1C#N` in this assay? inactive

What call does the record list for `O=C(CSc1nc2[nH]ncc2c(=O)n1-c1ccccc1Br)NCc1ccccc1Cl` ? inactive

For CCCn1nc([N+](=O)[O-])c(C(C#N)c2nc3ccccc3o2)c(Cl)c1=O (stereo unspecified) , which call appears in the assay record? active

* * *

- experimentNotes: serotonin-gated TRPC4 signal block – cell-based, second counter screen, HEK293 TRPC4/5HT1a, Fluo-4, counter-screen for TRPC4 inhibitor project, confirmation (AID 434978)
- measurementContext: Fluo-4 calcium flux, at 10 µM, serotonin added to trigger calcium flux
Calls of active or inactive are those of the source.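 The calls were made as follows: active = primary screen active whose calcium signal fell more than 3 SD beyond the full-serotonin control mean in both duplicate plates; inactive = the rest.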
Entry note: the call must match one of 1.0 = active, 0.0 = inactive

# compound, labelValue
measured = [
    ("Cn1c(-c2ccc(F)cc2)cnc1NCc1ccc(F)cc1", 1.0),
]

Record lookup: outcome of this test for `CNC[C@H](Cc1ccccc1)NC[C@@H](Cc1cccc2ccccc12)NCCc1ccc(C)cc1` ? 0.0

Recorded test call requested for `COc1ccc(Cl)c2sc(N(CCN(C)C)C(=O)c3ccc4c(c3)OCCO4)nc12` 0.0

Please share the test call associated with `CCCCN1CCc2c1nc1ccc(Br)cc1c2N` . 0.0

Can you look up the reported call for CCOC(=O)c1c(NC(=O)C2CCCCC2C(=O)O)sc2c1CCCCC2 (stereo not given) for me? 1.0

Where do the numbers come from? From PubChem BioAssay.
